# Test system: SF-268 CNS
# test.description: NCI tumour cell line growth inhibition, 48 h
# TGI listing for each entry below

Below, 3 compounds whose answers are already recorded.
compound: Nc1cc2ccncc2c2ccccc12
TGI: 52.5 µM

compound: CC1C/C(=C\c2ccc(O)c(O)c2)C(=O)/C(=C/c2ccc(O)c(O)c2)C1 (stereo unspecified)
TGI: 32.1 µM

compound: NC(=O)COc1ccc(Br)cc1Br
TGI: > 100 µM

Per the records, this compound ( "CCN(CC)Cc1cc(Nc2c3ccc(Cl)cc3nc3c(C)cccc23)ccc1O" ) has TGI equal to 3.09 µM

So for CC1[C@@H]2C[C@@H]3O[C@@]34[C@H]3CCC5Cc6nc7c(nc6C[C@@]5(C)C3(O)CC(=O)[C@@]24CO[C@]12OC(C)(C)CC2O)CC1CC[C@@H]2C3=C[C@H]4O[C@@]5(O[C@@](C)(CO)C[C@@H]5O)C(C)[C@@]4(O)[C@]3(C)[C@@H](O)CC2[C@]1(C)C7 (stereo partly specified) , the logged TGI turned out to be 0.683 µM

---

# Test system: NCI-H522 lung
# test.description: NCI tumour cell line growth inhibition, 48 h
*1 amine or outer side, *2 acyl side, *3 side chain or, on linkers, in order; H or OH if unused. Where a SMILES comes first, the peptide text is derived from it. [ ]: non-standard residue; d: D form. The star is where a group is joined. X12 = NCCCCC(N[*:1])C(=O)CN1CCCC1C(=O)[*:2]; Pentadecanoyl = CCCCCCCCCCCCCCC(=O)*
readout.kind: TGI

Before answering, review these 3 worked examples.
molecule: Cc1cnc2cc(Cl)ccc2c1SCC(=O)O
study.target: NCI-H522 lung
TGI: > 100 µM
--
molecule: COC(=O)C1=C(C)NC(C)=C(C(=O)OC)C1c1ccccc1[N+](=O)[O-]
study.target: NCI-H522 lung
TGI: > 100 µM
--
molecule: CCCCCCCCCCCCCCC(=O)NC(CCCCN)C(=O)CN1CCCC1C(=O)NCC(=O)NC(Cc1ccccc1)C(=O)N1CCCC1C(=O)NC(CO)C(=O)NC(Cc1ccc(O)cc1)C(=O)NC(CCCCN)C(=O)NC(CC(C)C)C(=O)NC(CCCN=C(N)N)C(=O)N1CCCC1C(=O)NCC(N)=O (centres undefined) (Pentadecanoyl-[X12]GFPSYKLRPG-NH2; configuration not given here)
study.target: NCI-H522 lung
TGI: 55.6 µM

The record that follows has no TGI shown yet.
Documented TGI of "CC[C@@]1(O)C(=O)N(CCN(C)C)Cc2c1cc1n(c2=O)Cc2cc3ccccc3nc2-1" : > 89 µM

---

# System: K-562 leukemia
# test.description: NCI tumour cell line growth inhibition, 48 h
Overview of reported TGI across a group of compounds:

Entry under test: "O=C(CSCC(=O)N/N=C\c1cccc(Br)c1)N/N=C\c1cccc(Br)c1" . Its TGI was 68.4 µM

Entry "COC(=O)[C@@H](C)C[C@H](Cc1ccccc1)NC(=O)c1csc([C@@H](C[C@H](C(C)C)N(C)C(=O)[C@@H](NC(=O)CN(C)C)C2CC2)OC(C)=O)n1" ; TGI = > 16.5 µM

// field: TGI; key: "CC1(C)CC(=O)C=C(NC(=O)c2ccccc2)C1" ; value = > 100 µM
